test system: DAPK3; conditions: concentration: 1 μM, replicates: in singlicate; n = 1;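 note: KINOMEscan kinase panel screen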
quantity-name: %Inh (%)

>  <molecule>
Cc1ccc(NC(=O)c2ccc(Cl)c(Cl)c2)cc1-c1ccc(C(=O)Nc2ccncc2)cc1

>  <val>
18

$$$$
>  <molecule>
COc1cccc(CC(=O)N2CCc3cc(-c4cn(C)c5ncnc(N)c45)ccc32)c1

>  <val>
21

$$$$
>  <molecule>
O=C(Nc1c(F)cccc1F)c1cc(C(=O)c2ccccc2F)c[nH]1

>  <val>
4

$$$$
>  <molecule>
COc1ccc(C)c(Nc2ccnc(Nc3ccc(-c4cnc[nH]4)cc3)n2)c1.Cl

>  <val>
6

$$$$
>  <molecule>
Cc1ccccc1CC(=O)N1CCc2cc(-c3cn(C)c4ncnc(N)c34)ccc21

>  <val>
0

$$$$
>  <molecule>
N#CC1(c2cccc(C(=O)Nc3cccc(Oc4ccc5nc(NC(=O)C6CC6)sc5n4)c3)c2)CC1

>  <val>
13

$$$$
>  <molecule>
COC(=O)Nc1nc2cc(Oc3ccc(NC(=O)Nc4cccc(SC)c4)cc3)ccc2[nH]1.Cl

>  <val>
1

$$$$
>  <molecule>
COc1cccc2c(-c3ccncc3)c(-c3ccc(F)cc3)nn12

>  <val>
21

$$$$
>  <molecule>
CN(C)c1ncnc2nc[nH]c12

>  <val>
20

$$$$
>  <molecule>
c1ccc(Oc2ccc(Nc3ccnc4cc(-c5ccc(CN6CCCCC6)o5)ccc34)cc2)nc1

>  <val>
0

$$$$
>  <molecule>
O=C1NC(=O)C(c2ccccc2Cl)=C1Nc1cccc(Cl)c1

>  <val>
15

$$$$
>  <molecule>
O=C(Nc1n[nH]c2cc(-c3cccs3)ccc12)C1CC1

>  <val>
3

$$$$
>  <molecule>
CS(=O)(=O)c1cccc(CNc2nc(Nc3ccc4c(c3)CCC(=O)N4)ncc2C(F)(F)F)c1

>  <val>
11

$$$$
>  <molecule>
COc1ccc(C2=C(Nc3cccc(O)c3)C(=O)NC2=O)cc1

>  <val>
52

$$$$
>  <molecule>
Nc1ncc(-c2cn[nH]c2)c2scc(-c3ccc4c(c3)CCN4C(=O)Cc3ccccc3)c12

>  <val>
22

$$$$
>  <molecule>
CSc1ccc(NC2=C(c3ccc(Cl)cc3)C(=O)NC2=O)cc1

>  <val>
0

$$$$
>  <molecule>
Cc1ccc(O)cc1Nc1ccnc2cc(-c3ccc(CN4CCCCC4)o3)ccc12

>  <val>
1

$$$$
>  <molecule>
Cn1cc(-c2cnc(N)c3c(-c4ccc5c(c4)CCN5C(=O)Cc4ccccc4)csc23)cn1

>  <val>
7

$$$$
>  <molecule>
Cn1cc(-c2ccc3c(c2)CCN3C(=O)Cc2cc(F)cc(C(F)(F)F)c2)c2c(N)ncnc21

>  <val>
19

$$$$
>  <molecule>
COc1cccc(C2=C(Nc3cccc(O)c3)C(=O)NC2=O)c1

>  <val>
16

$$$$
>  <molecule>
CN(c1ccc(NC(=O)Nc2cccc(Cl)c2)cc1)c1ccnc(N)n1.Cl

>  <val>
0

$$$$
>  <molecule>
Cc1ccc(C)c(NC(=O)Nc2ccc(C)c(-c3ccc(C(=O)Nc4ccncc4)cc3)c2)c1

>  <val>
2

$$$$
>  <molecule>
Cc1cccc(Nc2nc(NCCN)ncc2C(N)=O)c1

>  <val>
38

$$$$
>  <molecule>
CN(c1ccc(F)c(NC(=O)c2cccc(OC(C)(C)C#N)c2Cl)c1)c1ccc2nc(NC(=O)C3CC3)sc2n1

>  <val>
4

$$$$
>  <molecule>
Cc1ccc(NC(=O)c2ccnc(N3CCCCC3)c2)cc1-c1ccc(C(=O)NCC2CC2)cc1

>  <val>
12

$$$$
>  <molecule>
CNc1nccc(-c2ccc3c(N)n[nH]c3c2)n1

>  <val>
39

$$$$
>  <molecule>
Cc1cc(-c2ccnc(Nc3cccc(C#N)c3)n2)cc(C)c1O

>  <val>
5

$$$$
>  <molecule>
N#Cc1cnc2cc(-c3cnc(CNCCN4CCOCC4)s3)ccc2c1Nc1ccc(Oc2ccccc2)cc1

>  <val>
2

$$$$
>  <molecule>
CN(C)CCOc1ccc(-c2cc(-c3ccc(Cl)c(O)c3)c(-c3ccncc3)[nH]2)cc1.Cl.Cl

>  <val>
22

$$$$
>  <molecule>
CC(C)c1nc(-c2ccc(F)c(NS(=O)(=O)c3c(F)cccc3F)c2)c(-c2ccnc(Nc3ccc(N4CCOCC4)nc3)n2)s1

>  <val>
20

$$$$
>  <molecule>
CN(C)CCNS(=O)(=O)c1ccc(-c2ccnc3[nH]ccc23)cc1

>  <val>
88

$$$$
>  <molecule>
O=C(O)C(F)(F)F.O=c1[nH]ccc2nc(N[C@@H]3CCNC3)nc(Nc3ccc4c(c3)S(=O)(=O)CC4)c12

>  <val>
99.6

$$$$
>  <molecule>
CC(=O)Nc1cn2nc(Oc3cccc(NC(=O)c4cccc(C(F)(F)F)c4)c3)ccc2n1

>  <val>
6

$$$$
>  <molecule>
Cc1ccc(NC(=O)c2cccc(N3CCCCC3)c2)cc1-c1ccc(C(=O)NCC2CC2)cc1

>  <val>
29

$$$$
>  <molecule>
NCCC(NC(=O)c1cc(Br)c(-c2ccnc3[nH]ccc23)s1)c1ccccc1.O=C(O)C(F)(F)F.O=C(O)C(F)(F)F (stereo not drawn)

>  <val>
29

$$$$
>  <molecule>
Nc1ncc(-c2ccc3nccc(-c4ccncc4)c3c2)cc1S(=O)(=O)N1CCCCC1

>  <val>
30

$$$$
